Target: HLA-DRB1*03:01 (Homo sapiens, UniProt P01903+P01911, A100K/A102G/A103R/A169T/F55Y/I96L/K41T/L162R/M171V/P40S/Q125H/Q178H/Q39Y/R42S/S66N/T106N/T262R/W38E/Y61H)
Construct: purchased Benaroya Research Institute, Seattle, Washington
Assay: HLA binding assay, DRB1*03:01
Settings: read-out: HLA-DRB1 (IC50) *0301
Where no end group is shown, it is not given here.
Reported Metric: pIC50
One number for each entry, as −log10 of the molar value.

Please supply the value of reported pIC50 for the item EKMVSLLSVLLSM [NSP7-289]
4.51

###

Molecular target: HLA-DRB1*09:01 (Homo sapiens, UniProt P01903+P01911, A100R/A103E/D57H/D86V/F55Y/F60I/F76Y/I96F/K127E/L162R/M171V/P40D/Q125H/Q99R/R33Q/R42F/S133A/S66N/T210M/V115G/W38K/Y107V/Y59G/Y89S)
Experiment: HLA binding assay, DRB1*09:01
Conditions: read-out: HLA-DRB1 (IC50) *0901
Where no end group is shown, it is not given here.
Reported Metric: pIC50
One number for each entry, as −log10 of the molar value.

Given the sequence EKMVSLLSVLLSM [NSP7-289] , write its reported pIC50.
5.11

###

Biological target: HLA-DRB1*04:01 (Homo sapiens, UniProt P01903+P01911, A100K/A169T/F76Y/I96L/K127E/L162R/M171V/N62H/P40V/Q125Y/R42H/S133A/S149N/S66Y/V115G/V209L/W38E)
Construct: purchased Benaroya Research Institute, Seattle, Washington
Experiment: HLA binding assay, DRB1*04:01
Where no end group is shown, it is not given here.
Reported Metric: IC50 (nM)
Give bare numbers, in nM.

Answer with the recorded IC50 for the substance listed here: KSTYRVVSVLTVLHQD-NH2 [Tregitope 289z]
650

###

Target: HLA-DRB1*01:01 (Homo sapiens, UniProt P01903+P01911, A100R/D57E/F55L/F60I/F76Y/I96L/L162R/M171V/P40L/Q125E/R42F/V115G/Y59C)
Construct: purchased Benaroya Research Institute, Seattle, Washington
Test: HLA binding assay, DRB1*01:01
Where no end group is shown, it is not given here.
Reported Metric: IC50

Note IC50 for the substance shown: KSTYRVVSVLTVLHQD-NH2 [Tregitope 289z]
160 nM

###

Molecular target: HLA-DRB1*01:01 (Homo sapiens, UniProt P01903+P01911, A100R/D57E/F55L/F60I/F76Y/I96L/L162R/M171V/P40L/Q125E/R42F/V115G/Y59C)
Construct: purchased Benaroya Research Institute, Seattle, Washington
Test: HLA binding assay, DRB1*01:01
Details: read-out: HLA-DRB1 (IC50) *0101
Where no end group is shown, it is not given here.
Reported Metric: IC50

Return value of IC50 for input EKMVSLLSVLLSM [NSP7-289] , no commentary.
270 nM

###

Target: HLA-DRB1*11:01 (Homo sapiens, UniProt P01903+P01911, A100R/A169T/A87E/I96F/K41T/L162R/M171V/P40S/Q125H/Q178H/Q39Y/Q99D/R42S/S66Y/T262R/V115G/W38E)
Sequence (P01903 26-254 limits assumed, other chains not shown): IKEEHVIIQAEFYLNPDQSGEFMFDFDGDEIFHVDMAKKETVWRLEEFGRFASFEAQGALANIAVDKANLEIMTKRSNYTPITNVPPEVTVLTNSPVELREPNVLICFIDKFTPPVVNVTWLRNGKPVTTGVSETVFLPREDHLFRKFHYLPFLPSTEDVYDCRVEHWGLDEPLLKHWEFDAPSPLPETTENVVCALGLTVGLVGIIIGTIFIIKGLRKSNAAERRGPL
Experiment: HLA binding assay, DRB1*11:01
Conditions: read-out: HLA-DRB1 (IC50) *1101
Where no end group is shown, it is not given here.
Reported Metric: IC50 (µM)
Give bare numbers, in µM.

Given the sequence EKMVSLLSVLLSM [NSP7-289] , write its reported IC50.
3.24
